study.system: ACVRL1 (Homo sapiens, UniProt P37023)
Construct: purchased ThermoFisher
Sequence (P37023 22-503): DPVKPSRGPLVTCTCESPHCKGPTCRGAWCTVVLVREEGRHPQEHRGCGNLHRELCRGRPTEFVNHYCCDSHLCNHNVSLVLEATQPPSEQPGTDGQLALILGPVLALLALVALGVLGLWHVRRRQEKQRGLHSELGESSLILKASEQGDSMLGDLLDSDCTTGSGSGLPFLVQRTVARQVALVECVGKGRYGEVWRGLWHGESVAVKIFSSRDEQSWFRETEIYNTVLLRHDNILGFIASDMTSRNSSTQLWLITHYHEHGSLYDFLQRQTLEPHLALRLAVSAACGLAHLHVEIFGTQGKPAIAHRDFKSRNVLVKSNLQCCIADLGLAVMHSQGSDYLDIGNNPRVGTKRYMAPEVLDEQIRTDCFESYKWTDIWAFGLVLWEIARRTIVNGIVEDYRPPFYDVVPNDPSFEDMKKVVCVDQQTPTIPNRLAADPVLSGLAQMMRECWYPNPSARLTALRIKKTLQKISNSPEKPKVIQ
assay.protocol: ThermoFisher (Lantha) kinase assay, inhibition of ACVRL1
Assay type: biochemical
condition.summary: in vitro, NA = not active at 1 μM
Could you mark each record 1 if its IC50 falls strictly under 400 nM, and -1 if it equals or exceeds it?

Lookup: Does the reported IC50 of the following compound sit strictly below 400 nM? COc1cc(-c2nc3ccc(C(=O)NCCCN4CCN(c5ccccc5)CC4)cc3[nH]2)cc(OC)c1OC [CDD-2236]
Found: -1

Lookup: Does the reported IC50 of the following compound sit strictly below 400 nM? CNC(=O)[C@H]1CC[C@H](n2c(-c3cc(OC)c(OC)c(OC)c3)nc3ccc(C(=O)NC4COc5ccc(Cl)cc54)cc32)C1 (stereo partly shown) [CDD-2233]
Found: 1

Lookup: Does the reported IC50 of the following compound sit strictly below 400 nM? CNC(=O)[C@H]1C[C@H](n2c(-c3cccc(OC)c3)nc3ccc(C(=O)NCCCN(C)C)cc32)C1 [CDD-2684]
Found: 1

Lookup: Does the reported IC50 of the following compound sit strictly below 400 nM? CNC(=O)[C@H]1CC[C@H](n2c(-c3cc(OC)c(OC)c(OC)c3)nc3ccc(C(=O)NCCCN4CCN(c5ccccc5)CC4)cc32)C1 [CDD-2206]
Found: 1

Lookup: Does the reported IC50 of the following compound sit strictly below 400 nM? CN(C)CCCNC(=O)c1ccc2nc(-c3cccc(-c4ccccc4)c3)n(C3CCC3)c2c1 [CDD-2621]
Found: -1
